Source listed as ChEMBL document CHEMBL2331159.

Could you please report measured pIC50 for the items listed next?
Target: Pancreatic triacylglycerol lipase (Sus scrofa)
Sequence (P00591 whole entry): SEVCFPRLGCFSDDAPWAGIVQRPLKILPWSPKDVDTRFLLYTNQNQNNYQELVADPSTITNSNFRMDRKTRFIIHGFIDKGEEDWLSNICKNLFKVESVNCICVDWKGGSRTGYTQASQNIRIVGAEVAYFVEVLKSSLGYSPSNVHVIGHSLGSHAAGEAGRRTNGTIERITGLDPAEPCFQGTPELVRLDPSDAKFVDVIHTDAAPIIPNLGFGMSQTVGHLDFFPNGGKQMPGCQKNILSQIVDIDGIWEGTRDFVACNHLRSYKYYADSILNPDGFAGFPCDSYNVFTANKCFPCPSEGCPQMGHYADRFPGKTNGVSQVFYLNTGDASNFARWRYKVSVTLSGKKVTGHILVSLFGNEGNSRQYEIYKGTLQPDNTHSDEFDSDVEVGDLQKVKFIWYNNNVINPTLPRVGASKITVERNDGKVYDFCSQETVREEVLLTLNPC
Assay: Inhibition of pig pancreatic lipase assessed as hydrolysis of p-nitrophenylbutyrate to p-nitrophenol
Keep it numeric: pIC50 is minus log10 of the concentration in mol/L.

Name the reported pIC50 value associated with the compound C=C(C)[C@H]1Cc2c(ccc3c2O[C@@H]2COc4cc(OC)c(OC)cc4[C@@H]2C3=O)O1 (stereo in doubt) [ROTENONE]
4.10

Name the reported pIC50 value associated with the compound C=C(C)[C@H]1Cc2c(ccc3c2O[C@@H]2COc4cc(OC)c(OC)cc4[C@@H]2[C@]32C[C@H]3O[C@@]3(O)[C@H](O)O2)O1
4.55

Name the reported pIC50 value associated with the compound C=C(C)[C@H]1Cc2c(ccc3c2O[C@@H]2COc4cc(OC)c(OC)cc4[C@@H]2[C@@]32CO2)O1
5.20
